Molecular target: T1, MDM2 (res 2-125) (UniProt Q00987 2-125)
T1 construct: range 2-125
T1 sequence (Q00987 2-125 limits assumed): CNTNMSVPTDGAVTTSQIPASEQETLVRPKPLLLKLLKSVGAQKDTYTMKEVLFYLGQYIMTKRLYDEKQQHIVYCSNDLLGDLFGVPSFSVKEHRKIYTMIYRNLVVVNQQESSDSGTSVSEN
Experiment: fluorescence anisotropy (Example 1, retold as a range); upper end of range retold from Example 1
pKd: −log10 of the molar value. Starred links: 1 amine or outer side, 2 acyl side, 3 side chain; linkers in the order of their positions; H or OH if unused. Positions of bridges follow the written chain, without caps; N, C: chain ends. TBMB = c1c(C[*:1])cc(C[*:3])cc1C[*:2]

BINDER: H-SCVRFGWTCDNSWHGCKG-OH (linker 2-9-16 via TBMB, measured in PBS with 5 mM DTT; also called peptide 48; PEP48L1-PEP48L2 bicyclic peptide) [PEP48 bicyclic peptide (synthetic peptide of phage clone 48 conjugated to TBMB)]
pKd: ≥ 6.10
